Test: qHTS for Inhibitors of ATXN expression: Validation of Cytotoxic Assay (AID 588349); further: on the % scale 0 is the no-effect control and ±100 the full control effect
Conditions: cytotoxicity counter-screen for ATXN expression inhibitors, cell viability; series mostly up to 57.1 µM
Protocol: Spinocerebellar ataxia type 2 (SCA2) is a multisystem neurodegenerative disease caused by a dominantly-acting mutation leading to expansion of a polyQ domain in the ataxin-2 protein (ATXN2). […] […] cultured cells will be dosed with titrated compounds and incubated for 72 hr at 37 degrees C. Toxicity will be assessed using the CellTiter Glo kit (Promega), which uses intracellular ATP concentration as a viability marker.
Results filed as inconclusive are left out. Activity calls are given as the source filed them. The call rests on the fitted dose curve; in most records, active means well fitted cell-killing curve with a large enough effect; inconclusive means small, poorly fitted or top-dose-only effect, or effect the other way; inactive means flat fitted curve, though single readings scatter.
Outcomes you can answer with include only these: active, inactive

// below: answered compounds
INSERT INTO results (compound, answerlabel) VALUES
  ('Nc1nc(N)c2nc(CNc3ccc(C(=O)NC(CCC(=O)O)C(=O)O)cc3)cnc2n1 (centres undefined)', 'inactive'),
  ('CCN1CCCC1CNC(=O)c1cc(S(N)(=O)=O)ccc1OC (centres undefined)', 'inactive'),
  ('COc1cc2ncnc(Nc3cccc(Cl)c3)c2cc1OC', 'inactive');

Query: Record request — test call for O=C(O)C1CCCN(CCC=C(c2ccccc2)c2ccccc2)C1 (centres undefined)
Reply: inactive

---

Test: Quantitative High-Throughput drug screen in 47 multiple myeloma cell lines against the NCATS MIPE library collection: OCIMY5_PLB cell viability assay (AID 1918988); further: nearly all actives have a fitted effect of over 65% in size
Settings: OCI-MY5 myeloma viability, ATP luminescence, 48 h; series mostly up to 45.8 µM
From the text: PI: Beverly A. Mock Ph.D. Laboratory of Cancer Biology and Genetics, Center for Cancer Research, National Cancer Institute, National Institute of Health, Bethesda, Maryland […] 5; Detector; 425V; Luminescence; Viewlux PerkinElmer. […] 1. […] Briefly, the corresponding myeloma cell lines were screened in 1,536-well plates with 500 cells, 5-uL per well for inhibition of cell viability (assessed by measuring ATP levels with CellTiterGlo). […]
Inconclusive results are not listed. Activity calls are given as the source filed them. Calls follow the shape of the dose curve; as a rule, active = well fitted cell-killing curve with a large enough effect; inconclusive = small, poorly fitted or top-dose-only effect, or effect the other way; inactive = no such curve, though single readings can be large or run the other way.
Outcomes you can answer with include only these: true (1) = active, false (0) = inactive

INSERT INTO measurements (compound, answerlabel) VALUES
  ('C[C@]12C=CC(=O)C=C1CC[C@@H]1[C@@H]2C(=O)C[C@@]2(C)[C@H]1CC[C@]2(O)C(=O)CO', 'false (0)'),
  ('OC(Cn1cncn1)(Cn1cncn1)c1ccc(F)cc1F', 'false (0)'),
  ('COCCCOc1cc(C[C@@H](C[C@H](N)[C@@H](O)C[C@H](C(=O)NCC(C)(C)C(N)=O)C(C)C)C(C)C)ccc1OC', 'false (0)'),
  ('Cc1cccc(Nc2ccncc2S(=O)(=O)NC(=O)NC(C)C)c1', 'true (1)'),
  ('O=P(O)(O)C(O)(Cc1cccnc1)P(=O)(O)O', 'false (0)');

We next turn to a different compound, shown below.
Query: Record request — test call for CCOc1cc(N)c(Cl)cc1C(=O)NCC1CN(Cc2ccc(F)cc2)CCO1 (stereo unspecified)
Reply: false (0)

---

Target: Nuclear receptor subfamily 1 group I member 2 (Rattus norvegicus)
Experiment: qHTS assay for small molecule activators of the rat pregnane X receptor (rPXR) signaling pathway (AID 651751); further: 0% is about no effect
Conditions: rPXR reporter cells, luciferase (One-Glo), 24 h
measuredAttribute: max response (%)
Numbers only, in %.

INSERT INTO assay_data (structureassmiles, reportedvalue) VALUES
  ('NNC(=O)c1ccncc1', 6.47);

For every item in the list below, what is its measured max response?
1. N[C@@H](Cc1ccc(O)c(O)c1)C(=O)O
2. OC(Cn1cncn1)(Cn1cncn1)c1ccc(F)cc1F
3. Cc1nnc(NS(=O)(=O)c2ccc(N)cc2)s1
4. Cc1ncc([N+](=O)[O-])n1CCO
5. O=C(O)c1cc(=O)[nH]c(=O)[nH]1
6. Cc1ccnc2c1NC(=O)c1cccnc1N2C1CC1

Reply:
-10
4.95
-0.291
6.53
-3.54
-6.61

---

Assay: qHTS assay for small molecule antagonists of the retinoid-related orphan receptor gamma (ROR-gamma) signaling pathway - cell viability counter screen (AID 720652);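 further: CHO reporter cells with doxycycline-induced ROR-gamma expression; compound exposure lasted 16 hr before ATP read; on the % scale 0 is the no-effect control and ±100 the full control effect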
Conditions: RORgamma reporter cell line viability counter screen; series mostly up to 92.2 µM
Results filed as inconclusive are left out. Activity calls are given as the source filed them. Calls come from the whole dose curve; as a rule, active = well fitted cell-killing curve with a large enough effect in the repeat runs; inconclusive = weak or mixed curves, or effect the other way; inactive = flat fitted curve, though single readings scatter.
measuredAttribute: outcome

Below, 5 compounds whose answers are already recorded.
INSERT INTO measurements (structureassmiles, reportedvalue) VALUES
  ('CC1=NN(c2ccccc2)C(=O)C1', 'inactive'),
  ('COc1ccc2cc3[n+](cc2c1OC)CCc1cc2c(cc1-3)OCO2', 'inactive'),
  ('Cc1nnc(NS(=O)(=O)c2ccc(N)cc2)s1', 'inactive'),
  ('NC(N)=NC(N)=NCCc1ccccc1', 'inactive'),
  ('O=C(O)c1cc(=O)[nH]c(=O)[nH]1', 'inactive');

Query: Item `Cc1noc(NS(=O)(=O)c2ccc(N)cc2)c1C` has what recorded outcome?
Reply: inactive

---

Test: Quantitative High-Throughput drug screen in 47 multiple myeloma cell lines against the NCATS MIPE library collection: MOLP8_DSMZ cell viability assay (AID 1918977); further: nearly all actives have a fitted effect of over 45% in size
Conditions: MOLP8 myeloma viability, CellTiter-Glo ATP luminescence, 48 h; series mostly up to 45.8 µM
Inconclusive results are not listed. Calls of active or inactive are those of the source. Calls come from the whole dose curve; as a rule, active = well fitted cell-killing curve with a large enough effect; inconclusive = small, poorly fitted or top-dose-only effect, or effect the other way; inactive = no such curve, though single readings can be large or run the other way.
Outcomes you can answer with include only these: active, inactive

INSERT INTO measurements (compound, answerlabel) VALUES
  ('Cn1nnc2c(C(N)=O)ncn2c1=O', 'inactive'),
  ('Nc1nc(N)nc(-c2cc(Cl)ccc2Cl)n1', 'inactive'),
  ('CC(N)C12CC3CC(CC(C3)C1)C2 (stereo unspecified)', 'inactive'),
  ('CC1CC2C3CCC4=CC(=O)C=C[C@]4(C)[C@@]3(F)[C@@H](O)C[C@]2(C)[C@@]1(O)C(=O)CO (stereo partly specified)', 'active'),
  ('Nc1[nH]c(=O)ncc1F', 'inactive');

Query: Record request — test call for `CC1=NN(c2ccccc2)C(=O)C1`
Reply: inactive

Query: How about this compound: `CN(Cc1cc(Br)cc(Br)c1N)C1CCCCC1`
Reply: inactive

Query: How about this compound: `COc1cnc(NS(=O)(=O)c2ccc(N)cc2)nc1`
Reply: inactive

Query: How about this compound: CCOc1cc(N)c(Cl)cc1C(=O)NCC1CN(Cc2ccc(F)cc2)CCO1 (stereo unspecified)
Reply: inactive

Query: How about this compound: `O=C(N[C@H](CO)[C@H](O)c1ccc([N+](=O)[O-])cc1)C(Cl)Cl`
Reply: inactive

Query: How about this compound: `CCCc1nc(C)c2c(=O)[nH]c(-c3cc(S(=O)(=O)N4CCN(CC)CC4)ccc3OCC)nn12`
Reply: active

---

System: Tov-21-G
Assay: Primary qHTS to identify gynecologic anti-cancer compounds using libraries of approved drugs and bioactive compounds (AID 1345084); further: nearly all actives have a fitted effect of over 55% in size
Details: Gynecologic cancer cell panel viability, ATPlite luminescence, 48 h; series mostly up to 57.5 µM
Results filed as inconclusive are left out. Active and inactive are the calls of the source. Calls follow the shape of the dose curve; as a rule, active = well fitted cell-killing curve with a large enough effect; inconclusive = small, poorly fitted or top-dose-only effect, or effect the other way; inactive = flat fitted curve, though single readings scatter.
Outcomes you can answer with include only these: yes (1) (active), no (0) (inactive)

INSERT INTO measurements (molecule, tgt, answerlabel) VALUES
  ('COCCCOc1cc(C[C@@H](C[C@H](N)[C@@H](O)C[C@H](C(=O)NCC(C)(C)C(N)=O)C(C)C)C(C)C)ccc1OC', 'Tov-21-G', 'no (0)'),
  ('CNC(=O)c1cc(Oc2ccc(NC(=O)Nc3ccc(Cl)c(C(F)(F)F)c3)cc2)ccn1', 'Tov-21-G', 'no (0)'),
  ('COc1cccc(N(C)C(=S)Oc2ccc3c(c2)CCCC3)n1', 'Tov-21-G', 'no (0)'),
  ('CCc1cc(C(N)=S)ccn1', 'Tov-21-G', 'no (0)'),
  ('Cc1cc(NS(=O)(=O)c2ccc(N)cc2)no1', 'Tov-21-G', 'no (0)');

Query: Record request — test call for `CN(Cc1cc(Br)cc(Br)c1N)C1CCCCC1`
Reply: no (0)

Query: How about this molecule: CCOCC(O)COc1ccc(NC(=O)CC[S+](C)C)cc1 (stereo unspecified)
Reply: no (0)

Query: How about this molecule: CC(N)C12CC3CC(CC(C3)C1)C2 (stereo unspecified)
Reply: no (0)

Query: How about this molecule: `COc1cc([C@@H]2c3cc4c(cc3[C@H](O)[C@H]3COC(=O)[C@H]23)OCO4)cc(OC)c1OC`
Reply: yes (1)

Query: How about this molecule: `CN1CCN(c2c(F)cc3c(=O)c(C(=O)O)cn(CCF)c3c2F)CC1`
Reply: no (0)

Query: How about this molecule: `S=P(N1CC1)(N1CC1)N1CC1`
Reply: no (0)

---

Assay: Quantitative High-Throughput drug screen in 47 multiple myeloma cell lines against the NCATS MIPE library collection: XG1_PLB cell viability assay (AID 1919866); further: nearly all actives have a fitted effect of over 35% in size
Conditions: CellTiter-Glo ATP, 48 h; series mostly up to 45.8 µM
Inconclusive results are not listed. Activity calls are given as the source filed them. The call rests on the fitted dose curve; in most records, active means well fitted cell-killing curve with a large enough effect; inconclusive means small, poorly fitted or top-dose-only effect, or effect the other way; inactive means no such curve, though single readings can be large or run the other way.
Outcomes you can answer with include only these: true (1) for active, false (0) for inactive

// below: answered compounds
INSERT INTO results (compound, answerlabel) VALUES
  ('CCOCC(O)COc1ccc(NC(=O)CC[S+](C)C)cc1 (stereo not drawn)', 'false (0)'),
  ('COc1nc(N)nc2c1ncn2[C@@H]1O[C@H](CO)[C@@H](O)[C@@H]1O', 'false (0)'),
  ('CC(C)OC(=O)C(C(=O)OC(C)C)=C1SC=CS1', 'false (0)'),
  ('COc1cc2c(Nc3ccc(Br)cc3F)ncnc2cc1OCC1CCN(C)CC1', 'true (1)'),
  ('Cc1onc(-c2ccccc2Cl)c1C(=O)N[C@@H]1C(=O)N2[C@@H]1SC(C)(C)[C@@H]2C(=O)O', 'false (0)');

Query: Record request — test call for `CN(C)CCc1c[nH]c2ccc(C[C@H]3COC(=O)N3)cc12`
Reply: false (0)

Query: How about this compound: O=C(O)CSCC(=O)NC1CCSC1=O (stereo not drawn)
Reply: false (0)

Query: How about this compound: `O=c1oc2c(O)c(O)cc3c(=O)oc4c(O)c(O)cc1c4c23`
Reply: false (0)

Query: How about this compound: `CN1CCN(c2c(F)cc3c(=O)c(C(=O)O)cn4c3c2OCN4C)CC1`
Reply: false (0)

Query: How about this compound: C1CCC(C(CC2CCCCN2)C2CCCCC2)CC1 (stereo not drawn)
Reply: true (1)

Query: How about this compound: `O=S(=O)(O)CCS`
Reply: false (0)

Query: How about this compound: `CCn1cc(C(=O)O)c(=O)c2cc(F)c(N3CCNCC3)cc21`
Reply: false (0)

Query: How about this compound: Nc1nc(N)c2nc(CNc3ccc(C(=O)NC(CCC(=O)O)C(=O)O)cc3)cnc2n1 (stereo not drawn)
Reply: true (1)
